target: full length spike (S) protein of SARS-CoV-2 (SARS-CoV-2, UniProt P0DTC2 14-1273); test: cell-based or functional assay
endpoint_name: IC90, Pesudovirus neutralization (µg/mL)
Write the number in µg/mL without appending the unit.

binder="P22A-1D1 (antibody, human IgG1, kappa, V domains shown) VH: EVQLVESGGGLIQPGGSLRLSCAASGFTVSSNYMSWVRQAPGKGLEWVSVIYSGGSTYYADSVKGRFTISRDNSKNTLYLQMNSLRAEDTAVYYCARDRDYYGMDVWGQGTTVTVSS VL: DIQLTQSPSFLSASVGDRVTITCRASQGISSYLAWYQQKPGKAPKLLIYAASTLQSGVPSRFSGSGSGTEFTLTISSLQPEDFATYYCLHLNSYRTFGLGTKVEIKR" quantitative_result=0.399

For the next question, use this binder.
// query Output IC90, Pesudovirus neutralization of P4A-1H6 (antibody, human IgG1, kappa, V domains shown) VH: QVQLVESGGGVVQPGRSLRLSCAASGFTFSSYGMHWVRQSPGKGLEWVAVISDDGSNQYYADSVKGRFTISRDNSKNTLYLQMNSLRVEDTAVYYCAKRGGYCSTTSCLLRWVYFDFWGQGTLATVSS VL: DIQMTQSPSSLSASVGDRVTITCRASQSISSYLHWYQQKPGKAPNLLIYAASSLQSGVPSRFSGSGSGTDFTLTISSLQPEDFATYYCQQSYNTPTFGPGTKVDIKR
// result 2.21
